# test target: c-Cbl (residues 47-435) (Homo sapiens (Human), UniProt P22681)
# Sequence (P22681 47-435): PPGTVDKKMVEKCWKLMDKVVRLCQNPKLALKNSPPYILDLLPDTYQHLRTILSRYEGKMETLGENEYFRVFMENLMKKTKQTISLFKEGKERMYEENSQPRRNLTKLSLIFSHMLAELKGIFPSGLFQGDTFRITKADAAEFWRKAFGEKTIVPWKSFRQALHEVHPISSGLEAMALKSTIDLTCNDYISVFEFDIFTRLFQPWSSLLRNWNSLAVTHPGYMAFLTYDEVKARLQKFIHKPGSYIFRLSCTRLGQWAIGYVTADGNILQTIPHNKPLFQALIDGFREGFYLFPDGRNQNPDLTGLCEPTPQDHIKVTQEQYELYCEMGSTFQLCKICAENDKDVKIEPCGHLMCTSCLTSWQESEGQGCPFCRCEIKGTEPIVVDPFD
# assay overview: c-Cbl SPR assay
# Type: binding
# conditions used: 20° C.
reported endpoint: Kd (nM)

Some solved cases for reference:
| compound | Kd [nM] |
| --- | --- |
| Cn1cnnc1[C@]1(c2cc(OC3CCCC3)cc(N3Cc4c(cc(CNC5(C)CCC5)cc4C(F)(F)F)C3=O)c2)C[C@H](C)C1 | 72 |
| CC(=O)[C@H]1C[C@](c2cccc(N3Cc4c(cc(CNC5(C)CCC5)cc4C(F)(F)F)C3=O)c2)(c2nncn2C)C1 | 33 |

A: COC1CC([C@@H](c2cccc(N3Cc4c(cc(CNC5(C)CCC5)cc4C(F)(F)F)C3=O)c2)c2nncn2C)C1 (single isomer, unassigned) [Compound 134]
B: CO[C@H]1C[C@@](c2cc(OC3COC3)cc(N3Cc4c(cc(CNC5(C)CCC5)cc4C(F)(F)F)C3=O)c2)(c2nncn2C)C1
## Task // pick larger Kd from pair: A vs B Give the chosen item's label as your response.
## Result B
(B: 270 nM, A: 13 nM)

a: Cn1cnnc1C1(c2cccc(N3Cc4c(cc(CNC5(C)CCC5)cc4C(F)(F)F)C3=O)c2)CC2(COC2)C1
b: CO[C@H]1C[C@](c2cc(C)cc(N3Cc4c(cc(CNC5(C)CCC5)cc4C(F)(F)F)C3=O)c2)(c2nncn2C)C1
## Task Please let me know which one, a or b , has a lower measured Kd value. Reply with the label of the item you choose.
## Result a

a: Cn1cnnc1[C@@H](c1cccc(N2Cc3c(cc(CNC4(C)CCC4)cc3C(F)F)C2=O)c1)C1COC1 (single isomer, unassigned)
b: Cn1cnnc1C1(c2cccc(N3Cc4c(cc(CNC5(C)CCC5)cc4C(F)(F)F)C3=O)c2)CC(=O)C1
## Task Select the item whose Kd value is smaller, choosing between a and b . Please identify the chosen entry by its label.
## Result a

P: CO[C@H]1C[C@](c2cccc(N3Cc4c(cc(CNCC5(C)CC5)cc4C(F)(F)F)C3=O)c2)(c2nncn2C)C1
Q: CC(=O)C1CC([C@@H](c2cccc(N3Cc4c(cc(CNC5(C)CCC5)cc4C(F)(F)F)C3=O)c2)c2nncn2C)C1 (single isomer, unassigned) [Compound 383]
## Task Which of the two items, P and Q , has the greater recorded Kd? Your answer should be the label of the entry you select.
## Result P

1: Cn1cnnc1[C@]1(c2cccc(N3Cc4c(cc(CNC5(C)CCC5)cc4C(F)(F)F)C3=O)c2)C[C@]2(CCCO2)C1
2: Cn1cnnc1[C@@H](c1cccc(N2Cc3c(cc(CNC4(C)CCC4)cc3C(F)F)C2=O)c1)C1CC(F)C1 (single isomer, unassigned)
## Task Choose between 1 and 2 : whose measured Kd value is numerically larger? # respond with the chosen item's label
## Result 1
(1: 1900 nM, 2: 57 nM)

###

# test target: Cbl-b (Homo sapiens (Human))
# Sequence (Q13191 40-426): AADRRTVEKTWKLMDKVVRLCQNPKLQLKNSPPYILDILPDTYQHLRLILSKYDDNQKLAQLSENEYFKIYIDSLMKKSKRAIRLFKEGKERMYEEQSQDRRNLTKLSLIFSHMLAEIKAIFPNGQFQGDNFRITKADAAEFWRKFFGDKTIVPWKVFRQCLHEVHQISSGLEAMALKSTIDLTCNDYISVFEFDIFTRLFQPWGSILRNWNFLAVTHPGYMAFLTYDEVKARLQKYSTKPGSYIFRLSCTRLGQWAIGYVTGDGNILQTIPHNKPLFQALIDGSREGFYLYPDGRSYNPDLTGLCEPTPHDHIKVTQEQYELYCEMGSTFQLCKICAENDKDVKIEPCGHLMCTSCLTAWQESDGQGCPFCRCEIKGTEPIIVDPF
# assay overview: Cbl-b LCK Ub TR-FRET assay (Cbl-b Lck HTRF)
# Type: biochemical
# conditions used: Cbl-b LCK Ub TR-FRET, Example 121
reported endpoint: IC50 (µM)

| molecule | IC50 (µM) |
| --- | --- |
| Cn1cnnc1[C@@H](c1cccc(N2Cc3c(cc(CNC4(C)CC4)cc3C(F)(F)F)C2=O)c1)C1COC1 (single isomer, unassigned) | 0.0062 |
| CO[C@H]1C[C@](c2cccc(N3Cc4c(cc(CN[C@@]56CCC[C@@H]5C6)cc4C(F)(F)F)C3=O)c2)(c2nncn2C)C1 | 0.0062 |
| CO[C@H]1C[C@](c2cccc(N3Cc4c(cc(CN[C@H](C)C5CCC5)cc4C(F)(F)F)C3=O)c2)(c2nncn2C)C1 | 0.022 |
| COCC1(NCc2cc3c(c(C(F)(F)F)c2)CN(c2cccc([C@]4(c5nncn5C)C[C@H](OC)C4)c2)C3=O)CCC1 | 0.018 |
| CO[C@H]1C[C@](c2cccc(N3Cc4c(cc(CNCC5(CF)CCC5)cc4C(F)(F)F)C3=O)c2)(c2nncn2C)C1 | 0.0093 |

a: CC1(NCc2cc3c(c(C(F)(F)F)c2)CN(c2cccc([C@@H](C4COC4)n4ccnn4)c2)C3=O)CCC1 (single isomer, unassigned)
b: CO[C@H]1C[C@](c2cccc(N3Cc4c(cc(CNC5CC5)cc4C(F)(F)F)C3=O)c2)(c2nncn2C)C1
c: CO[C@H]1C[C@](c2cccc(N3Cc4c(cc(CN5CCCCC5)cc4C(F)(F)F)C3=O)c2)(c2nncn2C)C1
d: C[C@H](NC1(C)CCC1)c1cc2c(c(C(F)(F)F)c1)CN(c1cccc([C@H](c3nncn3C)C3COC3)c1)C2=O
## Task Write the entries in order, lowest recorded IC50 first. Returns: the labels arranged in the requested order.
## Result d, b, c, a
